EXPERIMENTAL_PROTOCOL: Stability of the compounds under high temperature, high humidity and light (influence factors, HPLC)
Format: physicochemical
CONDITIONS_USED: 5 days, Light 4500 ± 500 LX

COMPOUND	DISPLAY_UNIT	Chromatographic purity %
COC(=O)[C@H](c1ccccc1Cl)N1CCc2sc(OC(C)=O)cc2C1.Cl [Compound D-9, reference compound]	%	97.637
COC(=O)[C@H](c1ccccc1Cl)N1CCc2sc(OC(=O)/C=C/c3ccc(OC)cc3)cc2C1 [Compound D-8, reference compound]	%	91.635
C/C=C/C=C/C(=O)Oc1cc2c(s1)CCN([C@H](C(=O)OC)c1ccccc1Cl)C2	%	98.853
C/C=C/C(=O)Oc1cc2c(s1)CCN([C@H](C(=O)OC)c1ccccc1Cl)C2	%	99.539
